Biological target: anti-AAV2 capsid antibody A20 WT (bivalent, human IgG1 Fc WT) (human)
Sequence (heavy, as listed by the source, chain 1 of 2): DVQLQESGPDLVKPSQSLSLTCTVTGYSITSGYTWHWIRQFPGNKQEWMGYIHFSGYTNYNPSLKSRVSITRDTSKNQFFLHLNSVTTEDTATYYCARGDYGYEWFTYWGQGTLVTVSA
Sequence (light, as listed by the source, chain 2 of 2): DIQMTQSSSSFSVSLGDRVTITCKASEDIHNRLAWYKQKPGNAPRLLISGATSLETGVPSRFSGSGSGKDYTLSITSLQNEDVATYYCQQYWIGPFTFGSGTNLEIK
Test: SPR; Biacore T200, C1 chip, 25 °C, HBS-EP+ (10 mM HEPES, 150 mM NaCl, 3 mM EDTA, 0.05% P20, pH 7.4); antibody Fc variants captured via anti-human Fab-kappa nanobody (about 60 RU), Fc only variants amine-coupled (60-80 RU), cytokine-Fc fusions captured via anti-PGLALA F(ab')2 (35-40 RU); PRYSPRY domain injected in five two-fold dilutions from 500, 1000 or 2000 nM; global fit, Langmuir 1:1, affinity mode
readout.label: Kd (nM)

1) TRIM21 PRYSPRY domain (from UniProt P19474-1 277-475) (domain or fragment) ... 45.6

* * *

Target: Ustekinumab (human)
Sequence (heavy, as listed by the source, chain 1 of 2): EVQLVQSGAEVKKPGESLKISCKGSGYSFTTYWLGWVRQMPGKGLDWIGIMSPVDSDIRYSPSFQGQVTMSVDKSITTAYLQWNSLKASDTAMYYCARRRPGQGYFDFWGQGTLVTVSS
Sequence (light, as listed by the source, chain 2 of 2): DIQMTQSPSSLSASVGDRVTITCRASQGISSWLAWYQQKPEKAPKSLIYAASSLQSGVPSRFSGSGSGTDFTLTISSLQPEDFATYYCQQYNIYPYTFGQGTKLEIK
Test: SPR; Biacore T200, C1 chip, 25 °C, HBS-EP+ (10 mM HEPES, 150 mM NaCl, 3 mM EDTA, 0.05% P20, pH 7.4); antibody Fc variants captured via anti-human Fab-kappa nanobody (about 60 RU), Fc only variants amine-coupled (60-80 RU), cytokine-Fc fusions captured via anti-PGLALA F(ab')2 (35-40 RU); PRYSPRY domain injected in five two-fold dilutions from 500, 1000 or 2000 nM; global fit, Langmuir 1:1, affinity mode
pKd: −log10 of the molar value.
readout.label: pKd

1) TRIM21 PRYSPRY domain (from UniProt P19474-1 277-475) (domain or fragment) ... 7.37

* * *

Biological target: mAb1 YTE (human IgG1, M252Y, S254T, T256E) (human)
Assay: SPR; Biacore T200, C1 chip, 25 °C, HBS-EP+; (antibody) Fc variants captured at low density (about 8-10 RU) via anti-human Fab-kappa nanobody or anti-PGLALA F(ab')2; TRIM21-CC-PS injected 180 s in two-fold dilutions from 100, 400, 500 or 1000 nM; global 1:1 Langmuir fit; avidity (apparent) mode for symmetrical, affinity mode for asymmetrical Fc variants
pKd: −log10 of the molar value.
readout.label: pKd

1) TRIM21-coiled-coil-PRYSPRY (from UniProt P19474-1 128-475) (domain or fragment) ... 8.83

* * *

Target: mAb1 YTE-AAA (asymmetrical human IgG1, one Fc heavy chain YTE, the other AAA) (human)
Assay: SPR; Biacore T200, C1 chip, 25 °C, HBS-EP+; (antibody) Fc variants captured at low density (about 8-10 RU) via anti-human Fab-kappa nanobody or anti-PGLALA F(ab')2; TRIM21-CC-PS injected 180 s in two-fold dilutions from 100, 400, 500 or 1000 nM; global 1:1 Langmuir fit; avidity (apparent) mode for symmetrical, affinity mode for asymmetrical Fc variants
readout.label: Kd (nM)

1. TRIM21-coiled-coil-PRYSPRY (from UniProt P19474-1 128-475) (domain or fragment) ... 220

* * *

Target: Briakinumab (human)
Sequence (heavy, as listed by the source, chain 1 of 2): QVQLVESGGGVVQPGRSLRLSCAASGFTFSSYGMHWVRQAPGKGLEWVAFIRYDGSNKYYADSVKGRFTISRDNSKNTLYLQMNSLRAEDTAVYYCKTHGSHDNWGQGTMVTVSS
Sequence (light, as listed by the source, chain 2 of 2): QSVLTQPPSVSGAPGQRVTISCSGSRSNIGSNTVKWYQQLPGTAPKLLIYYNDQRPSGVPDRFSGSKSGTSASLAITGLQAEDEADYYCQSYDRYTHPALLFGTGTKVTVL
Assay: SPR; Biacore T200, C1 chip, 25 °C, HBS-EP+ (10 mM HEPES, 150 mM NaCl, 3 mM EDTA, 0.05% P20, pH 7.4); antibody Fc variants captured via anti-human Fab-kappa nanobody (about 60 RU), Fc only variants amine-coupled (60-80 RU), cytokine-Fc fusions captured via anti-PGLALA F(ab')2 (35-40 RU); PRYSPRY domain injected in five two-fold dilutions from 500, 1000 or 2000 nM; global fit, Langmuir 1:1, affinity mode
pKd: −log10 of the molar value.
readout.label: pKd

1) TRIM21 PRYSPRY domain (from UniProt P19474-1 277-475) (domain or fragment) ... 7.28

* * *

Molecular target: mAb1 HH-AAA (asymmetrical human IgG1, one Fc heavy chain HH, the other AAA) (human)
Assay: SPR; Biacore T200, C1 chip, 25 °C, HBS-EP+ (10 mM HEPES, 150 mM NaCl, 3 mM EDTA, 0.05% P20, pH 7.4); antibody Fc variants captured via anti-human Fab-kappa nanobody (about 60 RU), Fc only variants amine-coupled (60-80 RU), cytokine-Fc fusions captured via anti-PGLALA F(ab')2 (35-40 RU); PRYSPRY domain injected in five two-fold dilutions from 500, 1000 or 2000 nM; global fit, Langmuir 1:1, affinity mode
pKd: −log10 of the molar value.
readout.label: pKd

1. TRIM21 PRYSPRY domain (from UniProt P19474-1 277-475) (domain or fragment) ... 6.92

* * *

Target: mAb2 WT KiH (human IgG1, knob-into-hole, Fc wild type at the TRIM21 site) (human)
Assay: SPR; Biacore T200, C1 chip, 25 °C, HBS-EP+ (10 mM HEPES, 150 mM NaCl, 3 mM EDTA, 0.05% P20, pH 7.4); antibody Fc variants captured via anti-human Fab-kappa nanobody (about 60 RU), Fc only variants amine-coupled (60-80 RU), cytokine-Fc fusions captured via anti-PGLALA F(ab')2 (35-40 RU); PRYSPRY domain injected in five two-fold dilutions from 500, 1000 or 2000 nM; global fit, Langmuir 1:1, affinity mode
pKd: −log10 of the molar value.
readout.label: pKd

1) TRIM21 PRYSPRY domain (from UniProt P19474-1 277-475) (domain or fragment) ... 7.30

* * *

Target: anti-AAV2 capsid antibody A20 WT (human)
Assay: SPR; A20 antibody variants and TRIM21-CC-PS; orientation not told in the text (Supplementary Figure S8); apparent (avidity) constant
pKd: −log10 of the molar value.
readout.label: pKd

1) TRIM21-coiled-coil-PRYSPRY (TRIM21-CC-PS) (from UniProt P19474-1 128-475) (domain or fragment) ... 9.15
